pKd: −log10 of the molar value.
Literature pKd values, system: High affinity nerve growth factor receptor (Homo sapiens, UniProt P04629).
Sequence (P04629 whole entry): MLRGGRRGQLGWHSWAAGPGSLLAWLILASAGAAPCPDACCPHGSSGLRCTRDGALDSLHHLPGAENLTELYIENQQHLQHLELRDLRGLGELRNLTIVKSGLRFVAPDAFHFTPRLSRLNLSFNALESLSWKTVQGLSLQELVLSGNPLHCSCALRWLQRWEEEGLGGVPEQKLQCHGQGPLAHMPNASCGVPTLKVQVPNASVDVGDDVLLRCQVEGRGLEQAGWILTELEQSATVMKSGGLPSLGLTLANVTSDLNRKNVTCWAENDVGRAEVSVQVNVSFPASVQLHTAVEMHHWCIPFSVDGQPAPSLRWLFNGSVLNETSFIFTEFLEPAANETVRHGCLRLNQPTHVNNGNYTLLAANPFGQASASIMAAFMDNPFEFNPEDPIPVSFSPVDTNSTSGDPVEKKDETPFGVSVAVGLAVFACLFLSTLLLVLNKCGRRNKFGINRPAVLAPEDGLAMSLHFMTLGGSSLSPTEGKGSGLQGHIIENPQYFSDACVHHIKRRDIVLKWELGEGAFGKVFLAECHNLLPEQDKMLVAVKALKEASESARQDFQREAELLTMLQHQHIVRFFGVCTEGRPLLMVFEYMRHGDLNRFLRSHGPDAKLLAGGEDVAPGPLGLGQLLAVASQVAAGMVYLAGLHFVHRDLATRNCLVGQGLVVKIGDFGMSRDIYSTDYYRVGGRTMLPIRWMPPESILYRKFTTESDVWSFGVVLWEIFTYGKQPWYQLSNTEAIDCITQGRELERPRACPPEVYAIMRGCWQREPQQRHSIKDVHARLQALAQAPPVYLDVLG
Quantity: pKd

{"Mol smiles": "OC1CCN(c2cc(-c3cccc(-c4cnc5ccc(N6CCC[C@@H]6c6cccc(F)c6)nn45)n3)ccn2)CC1", "Reported measurement": 9.09}
{"Mol smiles": "N#Cc1cccc(-c2cnc3[nH]cc(-c4cccc(N)c4)c3c2)c1", "Reported measurement": 6.96}

P. CN1CCN(c2ccc(Nc3ncnc4ccc(NCc5cccc(Cl)c5)nc34)cc2)CC1
Q. N#Cc1cccc(-c2c[nH]c3ncc(-c4cccc(N)c4)cc23)c1
R. COc1ccc(-c2c[nH]c3ncc(-c4cccc(N)c4)cc23)cc1OC
S. CCOc1cccc(-c2nccc3c2cc(C(=O)O)n3CCOc2ccc(Cl)cc2)c1
INPUT: Place the items in sequence of falling pKd. Reply with the labels, ordered as the question asks.
OUTPUT: S, P, R, Q

I. Nc1cccc(-c2cnc3[nH]cc(-c4ccncc4)c3c2)c1
II. O=c1c2ccccc2nc2n1-c1ccccc1/C2=N\O
INPUT: Hi! Which is lower in terms of pKd, the first one I or the second one II ? Record your answer as the label of the chosen record.
OUTPUT: II

I. COc1ccc(-c2c[nH]c3ncc(-c4cncc(N)c4)cc23)cc1OC
II. COc1ccc(-c2c[nH]c3ncc(-c4cccc(NS(=O)(=O)c5ccccc5)c4)cc23)cc1OC
INPUT: Please indicate which entry, I or II , has the lower recorded pKd value. Mark your answer with the label of the selected entry.
OUTPUT: II
(II: 7.04, I: 7.24)
